Tested on: MOLT-4 leukemia
Assay: NCI tumour cell line growth inhibition, 48 h
Kindly state log10 TGI for each of the entries shown.
Hey, these are logged values: log10 of TGI, µM being the unit before logging.

Which log10 TGI is reported with MOLT-4 leukemia for this entry: CC(=N\O)/C(C)=N/O.CC(=N\O)/C(C)=N/O.CC(=N\O)/C(C)=N/O.CC(=N\O)/C(C)=N/O.[Cu].[Cu] ? 1.68

Which log10 TGI is reported with MOLT-4 leukemia for this entry: Cn1c(-c2ccc[se]2)ccc1-c1ccc(CO)[se]1 ? 1.99

Which log10 TGI is reported with MOLT-4 leukemia for this entry: COc1ccc(Nc2ccnc(NCCNc3ccnc4cc(Cl)ccc34)n2)cc1 ? 1.21

Which log10 TGI is reported with MOLT-4 leukemia for this entry: NS(=O)(=O)c1ccc(C2C3=C(CCCC3=O)OC3=C2C(=O)c2ccccc2C3=O)cc1 (stereo unspecified) ? -0.07

Which log10 TGI is reported with MOLT-4 leukemia for this entry: COc1ccc(C2=CC(c3cc(OC)c(OC)c(OC)c3)NC(=O)N2)cc1OC (stereo unspecified) ? 1.10

====

Tested on: SN12C renal
Experiment: NCI tumour cell line growth inhibition, 48 h
Kindly state TGI for each of the entries shown.

Reported TGI, compound O=c1c2ccccc2n2nnc3ccc(NCCCNCCNCCCNc4ccc5nnn6c7ccccc7c(=O)c4c56)c1c32 : ____ 7.49 µM

Reported TGI, compound NC1CCCCC1N.O=C([O-])P(=O)([O-])[O-].[Na+].[Pt+4] (stereo not drawn) : ____ > 100 µM

Reported TGI, compound NC(N)=N/N=C/c1c(-c2cccs2)nc2sccn12 : ____ 26.9 µM

Reported TGI, compound Cc1ccc(C(=O)O/N=C2/CCCCC2CN(C)C)cc1 (stereo not drawn) : ____ > 100 µM

Reported TGI, compound CC(C)(C)OC(=O)NC(Cc1ccc(O)cn1)C(N)=O (stereo not drawn) : ____ > 100 µM

Reported TGI, compound CC1CC[C@@]2(OC1)O[C@H]1C[C@H]3[C@@H]4CC[C@H]5C[C@@H](OC6OC(CO)C(OC7OC(CO)C(OC8OC(CO)C(O)C(OC9OC(C)C(OC%10OC(C)C(O)C(O)C%10O)C(O)C9O)C8OC8OCC(O)C(O)C8O)C(O)C7O)C(O)C6O)CC[C@]5(C)[C@H]4CC(=O)[C@]3(C)[C@H]1[C@@H]2C (stereo partly drawn) : ____ 40.9 µM

Reported TGI, compound Cc1cc(NS(=O)(=O)c2ccc(NC(=O)c3cccc4c(NNc5ccc(S(=O)(=O)N=C(N)N)cc5)c5ccccc5nc34)cc2)no1 : ____ > 100 µM

Reported TGI, compound N#Cc1c(N2CCCC2)ncn(Cc2ccccc2)c1=S : ____ > 100 µM

====

Tested on: 786-0 renal
Experiment: NCI tumour cell line growth inhibition, 48 h
We use 2 µM as the dividing line for TGI: on or above the line is yes, below is no.

State whether the measured TGI reaches 2 µM, counting equality as reaching it, for COc1ccc(C(O)c2cc3c(N)c(C(=O)Nc4cccc(Cl)c4C)sc3nc2C)cc1 (centres undefined) no

State whether the measured TGI reaches 2 µM, counting equality as reaching it, for O=c1[nH]c(-c2ccccc2)nc2ccc(Cl)cc12 yes

State whether the measured TGI reaches 2 µM, counting equality as reaching it, for O=C1c2ccccc2-c2c1c1ccc([N+](=O)[O-])cc1c(=O)n2CCNCCCNCCn1c2c(c3ccc([N+](=O)[O-])cc3c1=O)C(=O)c1ccccc1-2 yes

State whether the measured TGI reaches 2 µM, counting equality as reaching it, for O=C(NCCCCNCCCNC(=O)c1ccccc1)c1ccccc1 yes

State whether the measured TGI reaches 2 µM, counting equality as reaching it, for CNC(=O)c1c(NC(=O)c2cccc(C(F)(F)F)c2)sc2c1CCC(=O)C2 yes

State whether the measured TGI reaches 2 µM, counting equality as reaching it, for CC(=O)NC1C(OCc2ccccc2)OC(CO)C(O)C1OCC(=O)NC(C)C(=O)NC(CCC(=O)NCCCCCNc1c2ccccc2nc2cccc([N+](=O)[O-])c12)C(N)=O (centres undefined) no

State whether the measured TGI reaches 2 µM, counting equality as reaching it, for O=C(Nc1nnc(-c2ccccc2)o1)C(SC(=S)N1CCOCC1)c1ccccc1 (centres undefined) yes

State whether the measured TGI reaches 2 µM, counting equality as reaching it, for CC1(C)CN(c2ccccc2)C(=O)C1OC(=O)[C@@]1(C)C[C@@H]2C=C[C@H]1C2 (some centres undefined) yes

State whether the measured TGI reaches 2 µM, counting equality as reaching it, for O=C(Nc1ccc(Cl)cc1)c1cc2c(cc1O)[nH]c1ccccc12 yes

====

Kindly state GI50 for each of the entries shown.
Test system: CAKI-1 renal
Test: NCI tumour cell line growth inhibition, 48 h

Reported GI50, compound O=C1c2ccccc2-c2nccc3cc(Cl)nc1c23 : ____ > 100 µM

Reported GI50, compound CN(C)CCCNc1c2ccccc2nc2cccc([N+](=O)[O-])c12 : ____ < 0.001 µM

Reported GI50, compound COc1ccc(Nc2ncccc2/C=C/C(=O)c2cc(OC)c(OC)c(OC)c2)cc1 : ____ 1.52 µM

Reported GI50, compound O=CN1N=C(c2ccc(Nc3ccnc4cc(Cl)ccc34)cc2)CC1c1ccccc1 (stereo not given) : ____ 3.82 µM

Reported GI50, compound CC/C=C\C/C=C\C[C@H](O)C/C=C1/C(=O)C=C[C@H]1C/C=C\CCC(=O)OC : ____ 6.01 µM

====

Kindly state TGI for each of the entries shown.
Test system: OVCAR-3 ovarian
Assay: NCI tumour cell line growth inhibition, 48 h
Expressed in µM, but write only the number.

Reported TGI, compound CN(C)c1ccc(C(=O)c2ccc(N(C)C)c(N)c2)cc1N : ____ 8

Reported TGI, compound Fc1ccc(C2CC(c3cccc(Nc4ccncc4)c3)=NN2c2cc(Cl)cc(Cl)c2)cc1 (configuration not stated) : ____ 3.32

Reported TGI, compound CCN(CC)C(=S)N/N=C/c1ccccn1 : ____ 11

Reported TGI, compound COc1cc2c(c(OC)c1OC)-c1ccc(NNC(=S)N(Cc3cccc(C[N+](Cc4cccc(CNC56CC7CC(CC(C7)C5)C6)c4)(Cc4cccc(CNC56CC7CC(CC(C7)C5)C6)c4)Cc4cccc(CN(C(=S)NNc5ccc6c(cc5=O)[C@@H](NC(C)=O)CCc5cc(OC)c(OC)c(OC)c5-6)C56CC7CC(CC(C7)C5)C6)c4)c3)C34CC5CC(CC(C5)C3)C4)c(=O)cc1[C@@H](NC(C)=O)CC2 (some centres not stated) : ____ 6.53

Reported TGI, compound O=C1c2ccccc2-c2nccc3cc(Cl)nc1c23 : ____ 1.79

====

System: NCI-H23 lung
Test: NCI tumour cell line growth inhibition, 48 h; in the data active = GI50 below about 0.43 µM; inactive = the rest
Pick one and only one: active, inactive

Outcome? CN(C)c1ccc(C(=O)c2ccc(N(C)C)c(N)c2)cc1N inactive

Outcome? Fc1ccc(C2CC(c3cccc(Nc4ccncc4)c3)=NN2c2cc(Cl)cc(Cl)c2)cc1 (stereo not drawn) inactive

Outcome? CCN(CC)c1ccc(N=C2C=C(C(=O)Nc3ccc(S(C)(=O)=O)cc3)C(=O)c3ccccc32)c(C)c1 inactive

Outcome? C=C1C(=O)O[C@H]2[C@H]1CC/C(CNC(=O)/C=C/c1cccc(OC)c1)=C\CC[C@@]1(C)O[C@@H]21 inactive

Outcome? O=S1(=O)N(Cc2ccccc2)[C@@H](Cc2ccccc2)C2O[C@H]2[C@H](Cc2ccccc2)N1Cc1ccccc1 (stereo partly drawn) inactive

Outcome? N#Cc1c2ccccc2c2n1-c1ccccc1OC(c1ccccc1)C2=O (stereo not drawn) inactive

Outcome? COc1cc2c(cc1OCCCOC1=C=C=C(c3ccc4c(c3)c3cc(-c5ccc(OCCCOc6cc7c(cc6OC)C(=O)N6CCC[C@H]6C=N7)cc5)ccc3n4S(=O)(=O)c3ccc(C)cc3)C=C1)N=C[C@@H]1CCCN1C2=O inactive

Outcome? CNc1nc(C)c(-c2nc(Nc3cccc(S(N)(=O)=O)c3)ncc2F)s1 active

====

Tested on: SK-MEL-5 melanoma
Assay: NCI tumour cell line growth inhibition, 48 h; in the data active = GI50 below about 0.43 µM; inactive = the rest
Pick one and only one: active, inactive

Outcome? NC(N)=N/N=C/c1c(-c2cccs2)nc2sccn12 inactive

Outcome? CC(=N\O)/C(C)=N/O.CC(=N\O)/C(C)=N/O.CC(=N\O)/C(C)=N/O.CC(=N\O)/C(C)=N/O.[Cu].[Cu] inactive

Outcome? O=C(Cn1c(=O)c(-c2ccccc2)nc2ccccc21)c1cccnc1 inactive

Outcome? N#Cc1c2ccccc2c2n1-c1ccccc1OC(c1ccccc1)C2=O (centres undefined) inactive

Outcome? O=c1[nH]cnc2c1nnn2C1OC(CO)C(O)C1O (centres undefined) inactive

Outcome? Fc1ccc(C2CC(c3cccc(Nc4ccncc4)c3)=NN2c2cc(Cl)cc(Cl)c2)cc1 (centres undefined) inactive

Outcome? Cc1ccccc1S(=O)(=O)N1[C@H](c2ccc(Cl)cc2)C(C(=O)N[C@@H](Cc2ccccc2)C(N)=O)=C[C@@H]1C(C)(C)C inactive

Outcome? C[C@@H]1COCCN1c1nc(-c2cnc(N)cc2C(F)F)nc(N2[C@H](C)COC[C@@H]2C)n1 active

Outcome? O=CN1N=C(c2ccc(Nc3ccnc4cc(Cl)ccc34)cc2)CC1c1ccccc1 (centres undefined) inactive

Cited source: PubChem BioAssay (NCI)
